molecular target: human Gli1 (Homo sapiens); assay: Gli-mediated transcription reporter assay in C3H10T1/2 cells with exogenous Gli1; assay type: cell-based; settings: Gli1-transfected C3H10T1/2 cells, 24 h, 20 µM or 40 µM
Sequence (P08151 whole entry): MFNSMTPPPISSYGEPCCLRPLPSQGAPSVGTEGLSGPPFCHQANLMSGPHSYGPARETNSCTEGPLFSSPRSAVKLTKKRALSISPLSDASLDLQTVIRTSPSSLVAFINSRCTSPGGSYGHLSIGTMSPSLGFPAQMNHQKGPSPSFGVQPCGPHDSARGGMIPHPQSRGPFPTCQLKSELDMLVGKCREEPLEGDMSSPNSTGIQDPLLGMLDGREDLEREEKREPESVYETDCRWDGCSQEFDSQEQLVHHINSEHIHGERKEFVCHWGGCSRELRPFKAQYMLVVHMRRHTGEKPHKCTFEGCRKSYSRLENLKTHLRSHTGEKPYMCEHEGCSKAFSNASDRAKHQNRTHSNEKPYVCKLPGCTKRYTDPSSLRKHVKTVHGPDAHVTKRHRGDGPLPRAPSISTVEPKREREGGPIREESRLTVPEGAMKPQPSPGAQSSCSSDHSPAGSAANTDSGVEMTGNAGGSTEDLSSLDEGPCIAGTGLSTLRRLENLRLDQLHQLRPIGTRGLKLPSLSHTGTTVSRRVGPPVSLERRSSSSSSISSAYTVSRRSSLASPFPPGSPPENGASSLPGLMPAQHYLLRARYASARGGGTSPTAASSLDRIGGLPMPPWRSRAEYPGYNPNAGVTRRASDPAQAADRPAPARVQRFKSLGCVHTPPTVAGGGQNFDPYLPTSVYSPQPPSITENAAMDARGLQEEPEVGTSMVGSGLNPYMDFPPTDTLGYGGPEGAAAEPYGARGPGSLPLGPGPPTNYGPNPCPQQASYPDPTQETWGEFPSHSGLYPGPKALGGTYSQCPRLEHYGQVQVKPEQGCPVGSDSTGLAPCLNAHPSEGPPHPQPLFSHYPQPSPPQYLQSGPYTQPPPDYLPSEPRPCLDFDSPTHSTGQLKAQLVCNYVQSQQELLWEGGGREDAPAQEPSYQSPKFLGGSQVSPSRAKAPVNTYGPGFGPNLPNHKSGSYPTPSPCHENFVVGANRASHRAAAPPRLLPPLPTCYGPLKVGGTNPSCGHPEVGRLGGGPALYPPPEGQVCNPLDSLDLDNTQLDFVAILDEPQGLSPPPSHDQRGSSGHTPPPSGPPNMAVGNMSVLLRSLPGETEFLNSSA
test readout: inhibition of Gli1-mediated transcription (Gli-reporter activity), in words

O=C(Cc1ccccc1Oc1ccccc1)NCCc1ccc(O)cc1    decreased activity
C[C@H](C(=O)NCc1ccc(O)cc1)c1cccc(C(=O)c2ccccc2)c1    decreased activity

---

system: BJ-hTERT cells; assay: Cell viability assay; assay type: cell-based; details: noncancerous human skin fibroblasts, 40 µM, 72 h
test readout: cell viability / toxicity, BJ-hTERT

C[C@H](C(=O)NCCc1ccc(O)cc1)c1cccc(C(=O)c2ccccc2)c1    without showing toxicity
CCCN(CCc1ccc(O)cc1)C(=O)[C@@H](C)c1cccc(C(=O)c2ccccc2)c1    without showing toxicity
C[C@H](CNC(=O)NCCc1ccc(O)cc1)c1cccc(C(=O)c2ccccc2)c1    toxic
C[C@H](CNC(=O)Nc1ccc(O)cc1)c1cccc(C(=O)c2ccccc2)c1    toxic

---

experiment: Stability of compounds in C3H10T1/2 cell cultures; format: in vitro ADME, mouse; details: 24 hours
test readout: stability in the C3H10T1/2 cell cultures

C[C@H](C(=O)NCCc1ccc(O)cc1)c1cccc(C(=O)c2ccccc2)c1    stable
C[C@H](C(=O)N(CCc1ccc(O)cc1)CCc1ccc(O)cc1)c1cccc(C(=O)c2ccccc2)c1    stable
CCCN(CCc1ccc(O)cc1)C(=O)[C@@H](C)c1cccc(C(=O)c2ccccc2)c1    stable

Measured values drawn from paper PMC2853048 for this set.
